# protocol_notes: Pharmacokinetic experiment in rats
# Format: in vivo, Sprague-Dawley rats
# Design: unit not given here
# assay_context: rat, IV 3 mg/kg
measurement_label: Cl_pred (L/kg)

{"compound_smiles": "C[C@H]1CC(=O)Nc2cnn3ccc(nc23)N[C@H](C)c2cc(F)ccc2O1", "Cl_pred (L/kg)": 0.45}
{"compound_smiles": "O=C1CCOc2ccc(F)cc2[C@H]2CCCN2c2ccn3ncc(c3n2)N1", "Cl_pred (L/kg)": 0.60}
{"compound_smiles": "C[C@H]1CC(=O)Nc2cnn3ccc(nc23)N2CCC[C@@H]2c2cc(F)ccc2O1", "Cl_pred (L/kg)": 1.23}

Turning now to a further record.
Which Cl_pred (L/kg) value belongs to `C[C@H]1Nc2ccn3ncc(c3n2)NC(=O)CCOc2ccc(F)cc21` ? 0.47

----------
# protocol_notes: Pharmacokinetic experiment in rats
# Assay type: in vivo, Sprague-Dawley rats
# assay_context: male, Sprague-Dawley, plasma; rat, PO 10 mg/kg; read-out: MRTINF_pred
measurement_label: MRT inf (h)
Form entry: value (h) — number only.

Give the measured MRT inf of C[C@@H]1CCc2ncc(F)cc2[C@H]2CCCN2c2ccn3ncc(c3n2)C(=O)N1 [LOXO-195, reference compound] . 2.31

MRT inf for C[C@H]1CC(=O)Nc2cnn3ccc(nc23)N[C@H](C)c2cc(F)ccc2O1 [Compound T-2-A] ? 7.37

----------
# protocol_notes: Pharmacokinetic experiment in rats
# Format: in vivo, Sprague-Dawley rats
# assay_context: rat, PO 10 mg/kg
measurement_label: Vz_pred (L/kg)
Report only the number, with the unit L/kg understood.

Below are worked cases with known answers.
{"compound": "C[C@H]1CNC(=O)c2cnn3ccc(nc23)N[C@H](C)c2cc(F)ccc2O1 [TPX-0005, reference compound]", "Vz_pred / L/kg": 15.81}
{"compound": "C[C@@H]1CCc2ncc(F)cc2[C@H]2CCCN2c2ccn3ncc(c3n2)C(=O)N1 [LOXO-195, reference compound]", "Vz_pred / L/kg": 5.13}
{"compound": "O=C1CCOc2ccc(F)cc2[C@H]2CCCN2c2ccn3ncc(c3n2)N1", "Vz_pred / L/kg": 2.92}

What does the record list as Vz_pred for `C[C@H]1Nc2ccn3ncc(c3n2)NC(=O)CCOc2ccc(F)cc21` ? 10.05

I would be grateful if you could share the reported Vz_pred for `C[C@H]1CC(=O)Nc2cnn3ccc(nc23)N2CCC[C@@H]2c2cc(F)ccc2O1` . 8.50

Form field: reported Vz_pred of `C[C@H]1CC(=O)Nc2cnn3ccc(nc23)N[C@H](C)c2cc(F)ccc2O1` 6.70

----------
# protocol_notes: Pharmacokinetic experiment in rats
# Format: in vivo, Sprague-Dawley rats
# assay_context: male, Sprague-Dawley, plasma; rat, PO 10 mg/kg
measurement_label: half-life (h)
Give the number; h is assumed, so skip it.

These recorded examples may help you get a feel for the data.
{"compound": "C[C@H]1CC(=O)Nc2cnn3ccc(nc23)N[C@H](C)c2cc(F)ccc2O1", "value_reported": 4.84}
{"compound": "C[C@H]1CC(=O)Nc2cnn3ccc(nc23)N2CCC[C@@H]2c2cc(F)ccc2O1", "value_reported": 2.02}
{"compound": "O=C1CCOc2ccc(F)cc2[C@H]2CCCN2c2ccn3ncc(c3n2)N1", "value_reported": 5.77}

May I ask what half-life has been recorded for C[C@@H]1CCc2ncc(F)cc2[C@H]2CCCN2c2ccn3ncc(c3n2)C(=O)N1 [LOXO-195, reference compound] ? 4.11

Please report the recorded half-life for C[C@H]1CNC(=O)c2cnn3ccc(nc23)N[C@H](C)c2cc(F)ccc2O1 [TPX-0005, reference compound] . 0.76

Entry `C[C@H]1Nc2ccn3ncc(c3n2)NC(=O)CCOc2ccc(F)cc21` has what half-life? 0.36
